Cited source for all entries: patent US11111251B2

target: human mAChR M1 (Homo sapiens, UniProt P11229); experiment: mAChR M1 cell-based functional assay: calcium mobilization, positive allosteric modulator mode (increase in EC20 acetylcholine response); conditions: Table 2; human M1; read-out: Human M1 EC50
Doc: threshold 300 nM (exclusive). Items with EC50 beneath it return 1; others return 0.

Would you please look over these solved cases?
Find out if reported EC50 for `Cn1ccc(-c2ccc(Cc3cc(C(=O)NC[C@H]4CCCO4)nc4ccsc34)cn2)n1` is less than 300 nM
1

Find out if reported EC50 for `Cn1ccc2nc(C(=O)NCC3CCOCC3)cc(Cc3ccc(-c4nccs4)cc3)c21` is less than 300 nM
0

Find out if reported EC50 for `O=C(NC[C@@H]1CCCO1)c1cc(Cc2ccc(-c3nccs3)cc2)c2sccc2n1` is less than 300 nM
0

Find out if reported EC50 for Cn1cc(-c2ccc(Cc3cc(C(=O)NC4CCOC(C)(C)C4)nc4ccsc34)cc2)cn1 (stereo not shown) is less than 300 nM
1

Find out if reported EC50 for `Cc1nc(-c2ccc(Cc3cc(C(=O)N(C)C4CCOCC4)nc4ccsc34)cc2)co1` is less than 300 nM
0

Continuing:
Find out if reported EC50 for `Cc1nc(-c2ccc(Cc3cc(C(=O)NC4CCN(C)CC4)nc4ccsc34)cc2)co1` is less than 300 nM
0

Find out if reported EC50 for Cc1csc2c(Cc3ccc(-n4cccn4)cc3)cc(C(=O)NCC3CCCCO3)nc12 (stereo not shown) is less than 300 nM
0

Find out if reported EC50 for `Cc1nc(-c2ccc(Cc3cc(C(=O)NC4CCOCC4)nc4c(C)csc34)cc2)co1` is less than 300 nM
0

Find out if reported EC50 for Cc1csc2c(Cc3ccc(-c4ccn(C)n4)cc3)cc(C(=O)NCC3CCOC3)nc12 (stereo not shown) is less than 300 nM
0

Find out if reported EC50 for `Cn1cc(-c2ccc(Cc3cc(C(=O)N[C@H]4CCC[C@@H]4O)nc4ccsc34)cn2)cn1` is less than 300 nM
1

Find out if reported EC50 for `Cn1cc(-c2ccc(Cc3cc(C(=O)N[C@@H]4CC[C@H]4O)nc4ccsc34)c(F)c2)cn1` is less than 300 nM
0

Find out if reported EC50 for O=C(NC1CCCNC1=O)c1cc(Cc2ccc(-n3cccn3)cc2)c2sccc2n1 (stereo not shown) is less than 300 nM
0

Find out if reported EC50 for `O=C(N[C@@H]1CC[C@H]1O)c1cc(Cc2ccc(-c3cscn3)cc2)c2sccc2n1` is less than 300 nM
1

Find out if reported EC50 for Cc1csc2c(Cc3ccc(-n4cccn4)cc3)cc(C(=O)NCC3CCOC3)nc12 (stereo not shown) is less than 300 nM
0

Find out if reported EC50 for `CO[C@@H]1CCCC[C@H]1NC(=O)c1cc(Cc2cnc(C)s2)c2sccc2n1` is less than 300 nM
0

---

Target: human mAChR M1 (Homo sapiens, UniProt P11229)
Sequence (P11229 1-460): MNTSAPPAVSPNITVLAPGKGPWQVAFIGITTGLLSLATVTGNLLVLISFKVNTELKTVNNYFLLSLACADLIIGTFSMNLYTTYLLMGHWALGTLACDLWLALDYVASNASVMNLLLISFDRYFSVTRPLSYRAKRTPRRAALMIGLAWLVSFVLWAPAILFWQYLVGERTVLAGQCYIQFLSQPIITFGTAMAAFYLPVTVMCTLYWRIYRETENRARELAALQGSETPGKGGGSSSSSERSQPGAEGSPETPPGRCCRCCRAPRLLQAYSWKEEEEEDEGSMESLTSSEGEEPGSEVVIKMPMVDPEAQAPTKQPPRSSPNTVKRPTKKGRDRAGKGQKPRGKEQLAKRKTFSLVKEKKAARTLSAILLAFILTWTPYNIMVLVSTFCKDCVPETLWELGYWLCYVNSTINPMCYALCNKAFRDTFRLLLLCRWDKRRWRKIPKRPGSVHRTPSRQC
Test: mAChR M1 cell-based functional assay: calcium mobilization, positive allosteric modulator mode (increase in EC20 acetylcholine response)
Settings: Table 2; human M1; read-out: Human M1 Emax (%)
test.readout: Emax (%)
One number for each entry, in %.

A selection of reference data follows.
Requested field: Emax. Item: Cc1nn(C)cc1-c1ccc(Cc2cc(C(=O)N[C@H]3CCOC[C@@H]3O)nc3ccsc23)cc1 [Compound 248]
71.3

Requested field: Emax. Item: Cn1cc(-c2cc(F)c(Cc3cc(C(=O)N[C@H]4CCCC[C@@H]4O)nc4ccsc34)c(F)c2)cn1 [Compound 57]
80.1

Requested field: Emax. Item: Cc1nc(-c2ccc(Cc3cc(C(=O)NC4CC(F)C4)nc4ccsc34)cc2)cs1 (centres unmarked) [Compound 181]
64

Hi there! I need Emax for each item below, if you can.
1. COC1CC(NC(=O)c2cc(Cc3ccc(-c4csc(C)n4)cc3)c3sccc3n2)C1 (centres unmarked) [Compound 180]
2. Cc1cc2nc(C(=O)N[C@H]3CCCC[C@@H]3O)cc(Cc3ccc(-n4cccn4)cc3)c2s1 [Compound 237]

72.1
85.2

Hi there! I need Emax for each item below, if you can.
1. CN1CCC(NC(=O)c2cc(Cc3ccc(-c4cscn4)cc3)c3sccc3n2)CC1 [Compound 211]
2. Cc1ncc(Cc2cc(C(=O)NC3C4CC5CC3CC(O)(C5)C4)nc3ccsc23)s1 (centres unmarked) [Compound 142]
3. O=C(NC[C@@H]1CCCO1)c1cc(Cc2ccc(-n3cccn3)cc2)c2sccc2n1 [Compound 286]
4. COCCCNC(=O)c1cc(Cc2ccc(-n3cccn3)cc2)c2sccc2n1 [Compound 430]
5. Cc1ncc(Cc2cc(C(=O)N[C@@H]3CCCC[C@H]3O)nc3ccsc23)s1 [Compound 136]

[82.6, 23.9, 69.3, 72.9, 81]

Hi there! I need Emax for each item below, if you can.
1. Cn1ncc2nc(C(=O)N[C@@H]3CC[C@H]3O)cc(Cc3ccc(-c4cscn4)cc3)c21 [Compound 490]
2. O=C(NC1CCCOC1)c1cc(Cc2ccc(-n3cccn3)cc2)c2sccc2n1 (centres unmarked) [Compound 447]
3. O=C(N[C@H]1CCCC[C@@H]1O)c1cc(Cc2ccc(-c3cscn3)cc2)c2sccc2n1 [Compound 217]
4. Cn1ccc2nc(C(=O)NC3CCOCC3)cc(Cc3ccc(-n4cccn4)cc3)c21 [Compound 455]
5. O=C(N[C@H]1CCOC[C@@H]1O)c1cc(Cc2ccc(-c3cscn3)cc2)c2sccc2n1 [Compound 215]

1: 61.9; 2: 73.9; 3: 74.8; 4: 75.1; 5: 72.7

---

target: UniProtKB P11229; assay: mAChR M1 cell-based functional assay: calcium mobilization, positive allosteric modulator mode (increase in EC20 acetylcholine response); settings: Table 2; human M1; read-out: Human M1 EC50
Would you kindly list EC50 for each of these compounds?

Requested field: EC50. Item: Cn1ccc(-c2ccc(Cc3cc(C(=O)NC4COC4)nc4ccsc34)cn2)n1 [Compound 415]
8350 nM

Requested field: EC50. Item: O=C(NC1CCOCC1)c1cc(C(=O)c2ccc(-n3cccn3)cc2)c2sccc2n1 [Compound 264]
> 10000 nM

Requested field: EC50. Item: Cc1csc2c(Cc3ccc(-n4cccn4)cc3)cc(C(=O)NC3CCOCC3)nc12 [Compound 115]
1050 nM

Requested field: EC50. Item: O=C(NCC1CCOC1)c1cc(Cc2ccc(-c3nccs3)cc2)c2sccc2n1 (centres unmarked) [Compound 374]
556 nM

Requested field: EC50. Item: O=C(NC1CC2(COC2)C1)c1cc(Cc2ccc(-c3nccs3)cc2)c2sccc2n1 [Compound 333]
446 nM

Hi there! I need EC50 for each item below, if you can.
1. Cc1ncc(Cc2cc(C(=O)NC3C4CC5CC3CC(O)(C5)C4)nc3ccsc23)s1 (centres unmarked) [Compound 142]
2. Cc1nc(-c2ccc(Cc3cc(C(=O)NC4CCCNC4=O)nc4ccsc34)cc2)cs1 (centres unmarked) [Compound 198]
3. Cn1ccc(-c2ccc(Cc3cc(C(=O)NCC4CCOCC4)nc4ccn(C)c34)cn2)n1 [Compound 508]

["4950 nM", "484 nM", "2310 nM"]

---

target: human mAChR M1 (Homo sapiens, UniProt P11229); experiment: mAChR M1 cell-based functional assay: calcium mobilization, positive allosteric modulator mode (increase in EC20 acetylcholine response); settings: Table 2; human M1; read-out: Human M1 Emax (%)
Doc: threshold 80% (exclusive). Items with Emax beneath it return rule met; others return rule not met.

Find out if reported Emax for `Cc1nc(-c2ccc(Cc3cc(C(=O)N(C)C4CCOCC4)nc4ccsc34)cc2)co1` is less than 80%
rule met

Find out if reported Emax for O=C(NC1CCCNC1=O)c1cc(Cc2ccc(C(F)(F)F)nc2)c2sccc2n1 (stereo not shown) is less than 80%
rule met

Find out if reported Emax for Cc1nc(-c2ccc(Cc3cc(C(=O)NC4CCCNC4=O)nc4ccsc34)cc2)cs1 (stereo not shown) is less than 80%
rule not met

Find out if reported Emax for `Cn1ccc(-c2ccc(Cc3cc(C(=O)NC[C@H]4CCCO4)nc4ccsc34)cn2)n1` is less than 80%
rule met

Find out if reported Emax for `CO[C@@H]1CCCC[C@H]1NC(=O)c1cc(Cc2ccc(-c3cn(C)nn3)cc2)c2sccc2n1` is less than 80%
rule not met
